# assayRemarks: Plasma pharmacokinetics of Compound 1 in patients with advanced solid tumor malignancies and TGCT
# Format: in vivo, human
# cond: human, plasma, oral, 30 mg, Cohort 5 30 mg Twice Weekly after 5-day QD loading dose; C2D1; Median (Min, Max)
measuredParameter: Tmax (h)
Report only the number, with the unit h understood.

Data point: Cc1nc(-c2cnc(NC(C)C)n(C)c2=O)ccc1Oc1ccnc(-c2cnn(C)c2)c1 ; Tmax = 1.5

----------
# assayRemarks: Plasma pharmacokinetics of Compound 1 in patients with advanced solid tumor malignancies and TGCT
# Type: in vivo, human
# cond: human, plasma, oral, Cohort 7 20 mg QD after 3-day 50 mg QD loading dose; Day-7; Median (Min, Max)
measuredParameter: Tmax (h)
Report only the number, with the unit h understood.

Data point: Cc1nc(-c2cnc(NC(C)C)n(C)c2=O)ccc1Oc1ccnc(-c2cnn(C)c2)c1 [Compound 1] ; Tmax = 5

Every entry's value here was drawn from patent US11679110B2.
